testedSystem: CRBN/DDB1 complex (Homo sapiens)
Construct: made in house
Sequence (Q96SW2 40-442 limits assumed, species assumed, one chain of several): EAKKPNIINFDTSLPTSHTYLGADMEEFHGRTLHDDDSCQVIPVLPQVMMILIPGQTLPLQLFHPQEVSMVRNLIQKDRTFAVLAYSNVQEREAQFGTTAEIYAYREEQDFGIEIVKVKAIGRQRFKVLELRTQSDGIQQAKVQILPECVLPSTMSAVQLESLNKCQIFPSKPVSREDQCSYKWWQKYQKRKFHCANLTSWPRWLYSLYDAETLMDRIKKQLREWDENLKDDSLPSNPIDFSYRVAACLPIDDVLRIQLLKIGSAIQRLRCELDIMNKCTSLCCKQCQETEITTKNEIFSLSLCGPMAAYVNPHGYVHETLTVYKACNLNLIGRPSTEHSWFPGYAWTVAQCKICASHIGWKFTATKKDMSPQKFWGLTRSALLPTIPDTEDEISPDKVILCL
testMethodNotes: R2KD ligand-observed 1H NMR assay (Kd from transverse relaxation rate R2)
Format: binding
conditionContext: fragment hit triage, top 10 fragments; read-out: R2KD assay Kd
property: pKd
Just so you know, pKd here is -log10 of the concentration in molar units; reply with that number alone.

{"compound": "O=c1ccn(Cc2ccccc2)c(=O)[nH]1 [CCT240207]", "pKd": 4.07}
{"compound": "COc1cc2c(cc1OC)C(c1cccc(O)c1)CC(=O)N2 (centres unmarked) [CCT242858]", "pKd": 2.92}
{"compound": "Nc1ccc(C(=O)NCC2COc3ccccc3O2)cc1 (centres unmarked) [CCT240545]", "pKd": 3.20}
{"compound": "CCOc1ccc(C2CNC(=O)C2)cc1 (centres unmarked) [CCT239822]", "pKd": 3.27}

[ask] Give pKd only, for Cc1ccc(N2CC(=O)NC2=O)cc1 [CCT010354] , using CRBN/DDB1 complex (Homo sapiens) data.
[reply] 3.91
